- Assay System: HLA-A*24 (human)
- Assay Method Text: UV-ligand exchange, anti-b2m ELISA
This listing pairs binders with measured peptide exchange yield.

Previously resolved entries follow.
Binder: IFIEVFSHF [peptide SEQ ID No 178 …]
Result Value: 50 to 75%

Binder: VFKASKITF [peptide SEQ ID No 191 …]
Result Value: 50 to 75%

Binder: QYLGQIQHI [peptide SEQ ID No 268 …]
Result Value: 50 to 75%

Binder: TYTTVPRVAF [peptide SEQ ID No 172 …]
Result Value: > 75%

Binder: RYPDNLKHL [peptide SEQ ID No 286 …]
Result Value: 20 to 49%

**Q:** Given RYLNKAFHI [peptide SEQ ID No 284 …] , state its recorded peptide exchange yield.
**A:** 50 to 75%

**Q:** Please do the same for NYINRILKL [peptide SEQ ID No 167 …] as well.
**A:** > 75%

**Q:** Please do the same for EYPLVINTL [peptide SEQ ID No 219 …] as well.
**A:** 50 to 75%
